Source: patent US12527779B2

# TARGET_SYSTEM: human EP4 (hEP4) receptor (Homo sapiens)
# PROTOCOL_TEXT: In vitro human EP4 functional antagonist activity using BRET biosensors (cAMP EPAC biosensor, TCS2510 stimulation)
# TEST_PARAMETERS: antagonist activity vs EC60 TCS2510, hEP4 in HEK-293 T cells
Where a name gives a salt, the structure may show the parent alone.
Kindly state IC50 for each of the entries shown.

C[C@H](NC(=O)C1(N2CC[C@@H](Oc3cccc(C(F)(F)F)c3)C2)CCOCC1)c1ccc(C#N)cc1 [Example 182, hydrochloride]: < 100 nM
C[C@H](NC(=O)C1(c2cccc(OCC3CCCCCC3)c2)CCOCC1)c1ccc(C(=O)O)cc1: < 100 nM

Kindly give each listed record's IC50.
1. COc1ccc(OCCN(C)C2(C(=O)NC3(c4ccc(C(=O)O)cc4)CC3)CCOCC2)cc1 [Example 40, hydrochloride]
2. Cc1cccc(OCCN(C)C2(C(=O)NC3(c4ccc(C(=O)O)cc4)CC3)CCOCC2)c1 [Example 35, hydrochloride]
3. C[C@H](NC(=O)C1(c2ccc(OCC(F)(F)F)cc2)CCOCC1)c1ccc(C(=O)O)cc1
4. C[C@H](NC(=O)C1(N2CC[C@@H](OC3CCCCC3)C2)CCOCC1)c1ccc(C(=O)O)cc1 [Example 154, hydrochloride]
5. Cc1cccc([C@H](C)NC(=O)C2(N3CC[C@@H](Oc4cccc(C(F)(F)F)c4)C3)CCOCC2)c1 [Example 194, hydrochloride]
6. C[C@H](NC(=O)C1(c2ccc(OCCCc3ccccc3)cc2)CCOCC1)c1ccc(C(=O)O)cc1
7. C[C@H](NC(=O)C1(N2CC[C@@H](Oc3cccc(C(F)(F)F)c3)C2)CCC1)c1ccc(C(N)=O)cc1 [Example 171, hydrochloride]

A)
1. < 1000 nM
2. < 100 nM
3. < 1000 nM
4. < 100 nM
5. < 1000 nM
6. < 100 nM
7. < 100 nM

Kindly give each listed record's IC50.
1. O=C(O)c1ccc(C2(NC(=O)C3(NCCOc4cccc(Cl)c4)CCOCC3)CC2)cc1 [Example 28, hydrochloride]
2. C[C@H](NC(=O)C1(N2CC[C@@H](Oc3cccc(C(F)(F)F)c3)C2)CCCC1)c1ccc(C(=O)O)cc1 [Example 164, hydrochloride]
3. CNC(=O)c1ccc([C@H](C)NC(=O)C2(N(C)CCOc3ccccc3)CCOCC2)cc1
4. C[C@H](NC(=O)C1(N2CC[C@@H](Oc3cccc(C(F)(F)F)c3)C2)CCOCC1)c1ccc(-c2ccn[nH]2)cc1 [Example 177, hydrochloride]
5. O=C(O)c1ccc(C2(NC(=O)C3(N(CCOc4ccccc4)CC4CC4)CCOCC3)CC2)cc1 [Example 27, hydrochloride]

A)
["< 100 nM", "< 100 nM", "< 1000 nM", "< 100 nM", "< 1000 nM"]

* * *

# TARGET_SYSTEM: human EP4 (hEP4) receptor (Homo sapiens, UniProt P35408)
# Sequence (P35408 whole entry): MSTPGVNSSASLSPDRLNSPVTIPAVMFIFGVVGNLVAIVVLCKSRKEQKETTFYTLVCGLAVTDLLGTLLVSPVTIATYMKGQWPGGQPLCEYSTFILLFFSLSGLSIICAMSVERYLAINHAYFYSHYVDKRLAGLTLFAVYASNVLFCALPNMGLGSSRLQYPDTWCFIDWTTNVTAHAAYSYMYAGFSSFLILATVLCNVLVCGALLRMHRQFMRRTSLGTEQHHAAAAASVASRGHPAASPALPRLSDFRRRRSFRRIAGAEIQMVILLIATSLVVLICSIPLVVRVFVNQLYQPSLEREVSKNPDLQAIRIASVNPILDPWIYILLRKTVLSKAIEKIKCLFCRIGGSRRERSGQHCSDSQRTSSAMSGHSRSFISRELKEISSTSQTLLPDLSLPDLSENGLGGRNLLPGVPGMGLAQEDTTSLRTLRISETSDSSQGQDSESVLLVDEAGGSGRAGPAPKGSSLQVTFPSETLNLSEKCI
# PROTOCOL_TEXT: In vitro human EP4 functional antagonist activity using BRET biosensors (cAMP EPAC biosensor, TCS2510 stimulation)
# TEST_PARAMETERS: antagonist activity vs EC60 TCS2510, hEP4 in HEK-293 T cells
# Description: Examples of the present invention were tested successively for their agonist and antagonist activities on human EP4 (hEP4) receptor transiently over-expressed in HEK-293 T cells. […] BRET assay: Receptor activity is detected by changes in BRET signal. […] Compounds and luciferase substrate are added to the cells using an automated device (Freedom Evo®, Tecan) and BRET readings are collected on EnVision (PerkinElmer) with specific filters (410 nm BW 80 nm, 515 nm BW 30 nm). […]
Where a name gives a salt, the structure may show the parent alone.
Kindly state IC50 for each of the entries shown.

Example entries and their recorded answers appear below.
O=C(NC[C@H]1CC[C@H](C(=O)O)CC1)C1(N2CC[C@@H](Oc3cccc(C(F)(F)F)c3)C2)CCOCC1 [Example 200, hydrochloride]: < 100 nM
COc1cccc(O[C@@H]2CCN(C3(C(=O)N[C@@H](C)c4ccc(C(=O)O)cc4)CCOCC3)C2)c1 [Example 148, hydrochloride]: < 100 nM
Cc1ccc([C@H](C)NC(=O)C2(N3CC[C@@H](Oc4cccc(C(F)(F)F)c4)C3)CCOCC2)cc1 [Example 193, hydrochloride]: < 1000 nM

Kindly give each listed record's IC50.
1. C[C@H](NC(=O)C1(N(C)CCOc2ccccc2)CCOCC1)c1ccc(C(=O)O)cc1 [Example 2, hydrochloride]
2. CCCN(CCOc1ccccc1)C1(C(=O)NC2(c3ccc(C(=O)O)cc3)CC2)CCOCC1 [Example 26, hydrochloride]
3. CN(CCOc1ccccc1C(F)(F)F)C1(C(=O)NC2(c3ccc(C(=O)O)cc3)CC2)CCOCC1 [Example 42, hydrochloride]
4. Cc1ccccc1OCCN(C)C1(C(=O)NC2(c3ccc(C(=O)O)cc3)CC2)CCOCC1 [Example 36, hydrochloride]

A)
1. < 100 nM
2. < 1000 nM
3. < 1000 nM
4. < 100 nM

Kindly give each listed record's IC50.
1. C[C@H](NC(=O)C1(N2CC[C@@H](Oc3cccc(C(F)(F)F)c3)C2)CCOCC1)c1ccc(Br)cc1 [Example 190, hydrochloride]
2. C[C@H](NC(=O)C1(NCCOc2cccc(Cl)c2)CCOCC1)c1ccc(C(=O)O)cc1 [Example 8, hydrochloride]
3. C[C@H](NC(=O)C1(c2cccc(OCC3CCCCC3)n2)CCOCC1)c1ccc(C(=O)O)cc1
4. C[C@H](NC(=O)C1(N2CC[C@@H](Oc3cccc(C(F)(F)F)c3)C2)CC1)c1ccc(C(=O)O)cc1.Cl [Example 166, hydrochloride]
5. C[C@H](NC(=O)C1(c2cccc(OCCC3CCCCC3)c2)CCOCC1)c1ccc(C(=O)O)cc1
6. C[C@H](NC(=O)C(C)(C)N1CC[C@@H](Oc2cccc(Cl)c2)C1)c1ccc(C(N)=O)cc1 [Example 174, hydrochloride]

A)
1: < 1000 nM; 2: < 100 nM; 3: < 1000 nM; 4: < 100 nM; 5: < 1000 nM; 6: < 100 nM

* * *

# TARGET_SYSTEM: human EP4 (hEP4) receptor (Homo sapiens)
# PROTOCOL_TEXT: In vitro human EP4 functional antagonist activity using BRET biosensors (cAMP EPAC biosensor, TCS2510 stimulation)
# TEST_PARAMETERS: antagonist activity vs EC60 TCS2510, hEP4 in HEK-293 T cells
Where a name gives a salt, the structure may show the parent alone.
REPORTED_ENDPOINT: IC50

Kindly give each listed record's IC50.
1. C[C@H](NC(=O)C1(c2cccc(OCC3CCCCC3)c2)CCOCC1)c1ccc(C(=O)O)cc1 [Example 97]
2. C[C@H](NC(=O)C1(N2CC[C@@H](Oc3cccc(Cl)c3)C2)CCOCC1)c1ccc(C(=O)O)cc1 [Example 140, hydrochloride]
3. O=C(O)c1ccc(C2(NC(=O)C3(N4CCC[C@@H](Oc5cccc(Cl)c5)C4)CCOCC3)CC2)cc1 [Example 137, hydrochloride]
4. C[C@H](NC(=O)C1(N2CC[C@@H](Oc3cccc(C(F)(F)F)c3)C2)CCOCC1)c1ccccn1 [Example 186, hydrochloride]
5. COc1cccc(OCCN(C)C2(C(=O)NC3(c4ccc(C(=O)O)cc4)CC3)CCOCC2)c1 [Example 38, hydrochloride]

A)
< 1000 nM
< 100 nM
< 100 nM
< 1000 nM
< 100 nM

Kindly give each listed record's IC50.
1. C[C@H](NC(=O)C1(N2CC[C@@H](Oc3cccc(C(F)(F)F)c3)C2)CCOCC1)c1ccc(C(=O)O)cc1 [Example 144, hydrochloride]
2. C[C@H](NC(=O)C(C)(C)N1CC[C@@H](Oc2cccc(C(F)(F)F)c2)C1)c1ccc(C(=O)O)cc1 [Example 167, hydrochloride]

A)
["< 100 nM", "< 100 nM"]

* * *

Kindly state IC50 for each of the entries shown.
# TARGET_SYSTEM: human EP4 (hEP4) receptor (Homo sapiens, UniProt P35408)
# PROTOCOL_TEXT: In vitro human EP4 functional antagonist activity using BRET biosensors (cAMP EPAC biosensor, TCS2510 stimulation)
# TEST_PARAMETERS: antagonist activity vs EC60 TCS2510, hEP4 in HEK-293 T cells
Structures can show the parent of a compound that is named as a salt.

Example entries and their recorded answers appear below.
C[C@H](NC(=O)C1(N(C)CCOc2ccccc2)CCCOC1)c1ccc(C(=O)O)cc1 (stereo partly shown) [Example 73, hydrochloride]: < 1 µM
C[C@H](NC(=O)C1(c2ccc(OCCC3CCCCC3)cn2)CCOCC1)c1ccc(C(=O)O)cc1: < 1 µM
C[C@H](NC(=O)C1(NCCOc2ccccc2)CC2(CCC2)C1)c1ccc(C(=O)O)cc1 [Example 68, hydrochloride]: < 1 µM

Kindly give each listed record's IC50.
1. Cc1cc(C2(NC(=O)C3(N4CC[C@@H](Oc5cccc(C(F)(F)F)c5)C4)CCOCC3)CC2)ccc1C(=O)O [Example 198, hydrochloride]
2. C[C@H](NC(=O)C1(c2cccc(OCC3CCCCC3)c2)CCCC1)c1ccc(C(=O)O)cc1
3. C[C@H](NC(=O)C1(NCCOc2cccc(Cl)c2)CCCC1)c1ccc(C(=O)O)cc1 [Example 63, hydrochloride]
4. C[C@H](NC(=O)C1(N2CC[C@H](Oc3cccc(Cl)c3)C2)CCOCC1)c1ccc(C(=O)O)cc1 [Example 138, hydrochloride]

A)
1. < 0.1 µM
2. < 0.1 µM
3. < 0.1 µM
4. < 1 µM
